assay_procedure: Pharmacokinetic study in male ICR mice
Assay type: in vivo, mouse
assay_context: male, ICR, mouse, plasma, iv, 2 mg/kg, male ICR mice, 2 mg/kg IV, individual animals (Mouse 1-3)
observed_property: AUC(0-inf) (ng·h/mL)
Quick reminder: number only, in ng·h/mL, skip the unit.

Any idea what AUC(0-inf) was measured for CC1(C)CCC(c2ccc(Cl)cc2)=C(CN2CCN(c3ccc(C(=O)NS(=O)(=O)c4ccc(NCCCN5CCN(CCCC#Cc6cccc7c6CN(C6CCC(=O)NC6=O)C7=O)CC5)c(S(=O)(=O)C(F)(F)F)c4)cc3)CC2)C1 (stereo not shown) ?
3200

====

assay_procedure: Pharmacokinetic study in male ICR mice
Assay type: in vivo, mouse
assay_context: male, ICR, mouse, plasma, ip, 10 mg/kg, male ICR mice, 10 mg/kg IP, mean of 3 animals; read-out: Tmax
observed_property: Tmax
# number then unit; no other words

Which value of Tmax has been reported for CC1(C)CCC(c2ccc(Cl)cc2)=C(CN2CCN(c3ccc(C(=O)NS(=O)(=O)c4ccc(NCCCN5CCN(CCCC#Cc6cccc7c6CN(C6CCC(=O)NC6=O)C7=O)CC5)c(S(=O)(=O)C(F)(F)F)c4)cc3)CC2)C1 (stereo not shown) in the records?
40.2 min

====

assay_procedure: Pharmacokinetic study in male ICR mice
Type: in vivo, mouse
assay_context: male, ICR, mouse, plasma, ip, 10 mg/kg, male ICR mice, 10 mg/kg IP, mean of 3 animals; read-out: MRT(0-∞)
observed_property: MRT inf (h)
Please give a number only; it is taken to be in h.

Report MRT inf for CC1(C)CCC(c2ccc(Cl)cc2)=C(CN2CCN(c3ccc(C(=O)NS(=O)(=O)c4ccc(NCCCN5CCN(CCCC#Cc6cccc7c6CN(C6CCC(=O)NC6=O)C7=O)CC5)c(S(=O)(=O)C(F)(F)F)c4)cc3)CC2)C1 (stereo not shown) [SIAIS361034] please.
5.72

====

assay_procedure: Pharmacokinetic study in male ICR mice
Type: in vivo, mouse
assay_context: male, ICR, mouse, plasma, ip, 10 mg/kg, male ICR mice, 10 mg/kg IP, individual animals (Mouse 1-3); read-out: MRT(0-t)
observed_property: MRT last (h)
Field format: number, assumed h, no unit text.

Entry CC1(C)CCC(c2ccc(Cl)cc2)=C(CN2CCN(c3ccc(C(=O)NS(=O)(=O)c4ccc(NCCCN5CCN(CCCC#Cc6cccc7c6CN(C6CCC(=O)NC6=O)C7=O)CC5)c(S(=O)(=O)C(F)(F)F)c4)cc3)CC2)C1 (stereo not shown) : reported MRT last = ?
3.84

====

assay_procedure: Pharmacokinetic study in male ICR mice
Assay type: in vivo, mouse
assay_context: male, ICR, mouse, plasma, iv, 2 mg/kg, male ICR mice, 2 mg/kg IV, individual animals (Mouse 1-3); read-out: Vss
observed_property: Vd (L/kg)
# output: bare number, implied unit L/kg

Sample CC1(C)CCC(c2ccc(Cl)cc2)=C(CN2CCN(c3ccc(C(=O)NS(=O)(=O)c4ccc(NCCCN5CCN(CCCC#Cc6cccc7c6CN(C6CCC(=O)NC6=O)C7=O)CC5)c(S(=O)(=O)C(F)(F)F)c4)cc3)CC2)C1 (stereo not shown) [SIAIS361034] — what was its Vd?
0.163

====

assay_procedure: Pharmacokinetic study in male ICR mice
Assay type: in vivo, mouse
assay_context: male, ICR, mouse, plasma, po, 10 mg/kg, male ICR mice, 10 mg/kg PO, mean
observed_property: AUC(0-inf)

State the recorded AUC(0-inf) for this entry: CC1(C)CCC(c2ccc(Cl)cc2)=C(CN2CCN(c3ccc(C(=O)NS(=O)(=O)c4ccc(NCCCN5CCN(CCCC#Cc6cccc7c6CN(C6CCC(=O)NC6=O)C7=O)CC5)c(S(=O)(=O)C(F)(F)F)c4)cc3)CC2)C1 (stereo not shown)
208 ng·h/mL

====

assay_procedure: Pharmacokinetic study in male ICR mice
Format: in vivo, mouse
assay_context: male, ICR, mouse, plasma, po, 10 mg/kg, male ICR mice, 10 mg/kg PO, mean
Description: Standard pharmacokinetic (PK) studies were conducted using male ICR Mice. A single 2 mg/kg intravenous (i.v.) injection, 10 mg/kg intraperitoneal (i.p.) injection or 10 mg/kg oral (p.o.) administration of SIAIS361034 was evaluated. Plasma concentrations of SIAIS361034 at each of the 7 time points (0.25 h, 0.5 h, 1 h, 2 h, 4 h, 8 h, and 24 h post dosing) are the average values from 3 animals.
observed_property: half-life (min)
Quick note: give the figure in min, leave out the unit.

Recorded half-life of CC1(C)CCC(c2ccc(Cl)cc2)=C(CN2CCN(c3ccc(C(=O)NS(=O)(=O)c4ccc(NCCCN5CCN(CCCC#Cc6cccc7c6CN(C6CCC(=O)NC6=O)C7=O)CC5)c(S(=O)(=O)C(F)(F)F)c4)cc3)CC2)C1 (stereo not shown) [SIAIS361034] , please.
341

====

assay_procedure: Pharmacokinetic study in male ICR mice
Assay type: in vivo, mouse
assay_context: male, ICR, mouse, plasma, ip, 10 mg/kg, male ICR mice, 10 mg/kg IP, individual animals (Mouse 1-3); read-out: AUC(0-t)
observed_property: AUC(0-t) (ng·h/mL)
Hi! Could you send only the number? It should be in ng·h/mL, unit omitted.

Looking for the measured AUC(0-t) of CC1(C)CCC(c2ccc(Cl)cc2)=C(CN2CCN(c3ccc(C(=O)NS(=O)(=O)c4ccc(NCCCN5CCN(CCCC#Cc6cccc7c6CN(C6CCC(=O)NC6=O)C7=O)CC5)c(S(=O)(=O)C(F)(F)F)c4)cc3)CC2)C1 (stereo not shown) , can you help?
15500

====

assay_procedure: Pharmacokinetic study in male ICR mice
Type: in vivo, mouse
assay_context: male, ICR, mouse, plasma, ip, 10 mg/kg, male ICR mice, 10 mg/kg IP, individual animals (Mouse 1-3); read-out: MRT(0-∞)
observed_property: MRT inf (h)
Give just the number in h; leave the unit off.

# MRT inf lookup, item CC1(C)CCC(c2ccc(Cl)cc2)=C(CN2CCN(c3ccc(C(=O)NS(=O)(=O)c4ccc(NCCCN5CCN(CCCC#Cc6cccc7c6CN(C6CCC(=O)NC6=O)C7=O)CC5)c(S(=O)(=O)C(F)(F)F)c4)cc3)CC2)C1 (stereo not shown) [SIAIS361034]
5.25

====

assay_procedure: Pharmacokinetic study in male ICR mice
Assay type: in vivo, mouse
assay_context: male, ICR, mouse, plasma, po, 10 mg/kg, male ICR mice, 10 mg/kg PO, individual animals (Mouse 1-3); read-out: Cmax
observed_property: Cmax (ng/mL)
Please respond with the number in ng/mL and leave the unit unwritten.

Using the record for CC1(C)CCC(c2ccc(Cl)cc2)=C(CN2CCN(c3ccc(C(=O)NS(=O)(=O)c4ccc(NCCCN5CCN(CCCC#Cc6cccc7c6CN(C6CCC(=O)NC6=O)C7=O)CC5)c(S(=O)(=O)C(F)(F)F)c4)cc3)CC2)C1 (stereo not shown) [SIAIS361034] , report its Cmax.
50.9

====

assay_procedure: Pharmacokinetic study in male ICR mice
Assay type: in vivo, mouse
assay_context: male, ICR, mouse, plasma, iv, 2 mg/kg, male ICR mice, 2 mg/kg IV, individual animals (Mouse 1-3); read-out: AUC(0-t)
observed_property: AUC(0-t)
Quick note: number first, unit second.

Quick one: AUC(0-t) for CC1(C)CCC(c2ccc(Cl)cc2)=C(CN2CCN(c3ccc(C(=O)NS(=O)(=O)c4ccc(NCCCN5CCN(CCCC#Cc6cccc7c6CN(C6CCC(=O)NC6=O)C7=O)CC5)c(S(=O)(=O)C(F)(F)F)c4)cc3)CC2)C1 (stereo not shown) ?
3190 ng·h/mL

====

assay_procedure: Pharmacokinetic study in male ICR mice
Assay type: in vivo, mouse
assay_context: male, ICR, mouse, plasma, ip, 10 mg/kg, male ICR mice, 10 mg/kg IP, individual animals (Mouse 1-3)
observed_property: AUC(0-inf) (ng·h/mL)
Give just the number in ng·h/mL; leave the unit off.

Which measured AUC(0-inf) value corresponds to CC1(C)CCC(c2ccc(Cl)cc2)=C(CN2CCN(c3ccc(C(=O)NS(=O)(=O)c4ccc(NCCCN5CCN(CCCC#Cc6cccc7c6CN(C6CCC(=O)NC6=O)C7=O)CC5)c(S(=O)(=O)C(F)(F)F)c4)cc3)CC2)C1 (stereo not shown) [SIAIS361034] ?
16300

====

assay_procedure: Pharmacokinetic study in male ICR mice
Type: in vivo, mouse
assay_context: male, ICR, mouse, plasma, iv, 2 mg/kg, male ICR mice, 2 mg/kg IV, mean of 3 animals; read-out: Vz
observed_property: Vd
Give me the value, and tack the unit on after it.

Given the entry CC1(C)CCC(c2ccc(Cl)cc2)=C(CN2CCN(c3ccc(C(=O)NS(=O)(=O)c4ccc(NCCCN5CCN(CCCC#Cc6cccc7c6CN(C6CCC(=O)NC6=O)C7=O)CC5)c(S(=O)(=O)C(F)(F)F)c4)cc3)CC2)C1 (stereo not shown) , report its measured Vd.
2.03 L/kg
